- study.system: T1, cynomolgus monkey serum albumin (cynomolgus monkey, UniProt A2V9Z4 25-608)
- T1 construct: Immobilised on SPR chips; also called cynoSA; cynomolgus albumin
- procedure.text: SPR Biacore 8K+ SCK, albumin on chip, pH 5.5
The binders listed here are annotated with their koff.
Respond numerically; units are s⁻¹ and should not be typed.

These solved cases illustrate the format of a correct answer.
Alb23 L59A (VHH, VHH alone) VHH: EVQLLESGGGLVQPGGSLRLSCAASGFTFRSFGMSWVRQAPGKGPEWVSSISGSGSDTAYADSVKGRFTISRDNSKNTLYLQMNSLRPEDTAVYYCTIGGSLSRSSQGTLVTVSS :: 0.0241
Alb23 M34A (VHH, VHH alone) VHH: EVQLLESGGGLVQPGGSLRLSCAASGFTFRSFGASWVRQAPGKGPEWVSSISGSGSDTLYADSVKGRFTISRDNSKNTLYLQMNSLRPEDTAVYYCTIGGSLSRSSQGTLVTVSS :: 0.0831
Alb23 G33A/S101A (VHH, VHH alone) VHH: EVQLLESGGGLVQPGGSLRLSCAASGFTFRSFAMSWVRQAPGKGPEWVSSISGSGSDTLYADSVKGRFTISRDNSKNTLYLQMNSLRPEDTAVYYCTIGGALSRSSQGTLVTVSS :: 0.0711

*Q* koff for Alb23 G99A (VHH, VHH alone) VHH: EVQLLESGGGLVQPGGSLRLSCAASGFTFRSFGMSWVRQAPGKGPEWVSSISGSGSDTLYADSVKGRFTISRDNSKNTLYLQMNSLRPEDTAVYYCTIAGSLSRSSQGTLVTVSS ?
*A* 0.0495

*Q* Same again, this time with Alb23 G100A (VHH, VHH alone) VHH: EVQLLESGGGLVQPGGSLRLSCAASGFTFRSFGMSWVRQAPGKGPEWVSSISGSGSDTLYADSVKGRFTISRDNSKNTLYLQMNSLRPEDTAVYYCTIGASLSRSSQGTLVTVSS
*A* 0.0195

The measured values listed here are drawn from patent US20260152573A1.
